Listed below: pIC50 values for each entry.
assayed-target: UniProt P01375
Sequence (P01375 77-233 limits assumed): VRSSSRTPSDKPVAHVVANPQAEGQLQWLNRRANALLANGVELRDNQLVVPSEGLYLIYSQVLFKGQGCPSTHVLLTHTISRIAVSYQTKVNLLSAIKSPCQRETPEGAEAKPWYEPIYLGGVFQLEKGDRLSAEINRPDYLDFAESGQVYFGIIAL
method-description: TNF FP Assay
Assay type: binding
measurement-parameters: TNF 20 nM, 25° C., 2 hours; Table 2
Procedure: TNF (20 nM) and test compound in 47 mM HEPES pH 6.5, 47 mM NaCl, 0.9 mM EDTA, 0.007% Triton X-100 were incubated at 25° C. for 2 hours. Fluorescence data was read with an Envision and plotted versus Compound concentration and fit to a single-site binding model.
pIC50: −log10 of the molar value.

* O=C(CNC[C@H]1OC[C@H](Nc2cncc(C(F)(F)F)n2)[C@@H](O)[C@H]1O)NCCOCCOCCOCc1ccc(-c2cccc3ccncc23)c(OCCc2ccc(-c3cccc4ccncc34)cc2)c1 [compound 6] | 6.30 to 7.00
* CC1(C)C(=O)c2ccc(-c3cnc(N4CCN5C(=O)N(CCCNC(=O)CCN6CCN(CC(=O)NC[C@H]7OC[C@H](Nc8cncc(C(F)(F)F)n8)[C@@H](O)[C@H]7O)CC6)C[C@@H]5C4)nc3)nc2N1Cc1cccnc1C#N [compound 11] | 6.30 to 7.00
* O=C(CC(=O)NC[C@H]1OC[C@H](Nc2cncc(C(F)(F)F)n2)[C@@H](O)[C@H]1O)NCCOCCOCCOCc1ccc(-c2cccc3ccncc23)c(OCCc2ccc(-c3cccc4ccncc34)cc2)c1 [compound 1] | 6.30 to 7.00

[Q] Name the recorded pIC50 of the compound listed here: CC1(C)C(=O)c2ccc(-c3cnc(N4CCN5C(=O)N(CCOCCNC(=O)[C@H]6CC[C@H](C(=O)NC[C@H]7OC[C@H](Nc8cncc(C(F)(F)F)n8)[C@@H](O)[C@H]7O)CC6)C[C@@H]5C4)nc3)nc2N1Cc1cccnc1C#N [compound 17]
[A] 6.00 to 6.30
